ASSAYED TARGET: Serine/threonine-protein kinase RIO2 (Homo sapiens)
ASSAY EXPLANATION: Inhibition of N-terminal GST-fused full length human recombinant RIOK2 expressed in baculovirus Sf21 cells assessed as reduction in kinase auto-phosphorylation at 1 uM in presence of ATP incubated for 1 hr by ELISA method
MEASUREMENT KIND: inhibition (%)

[[record]]
item_smiles = "Cc1[nH]c(/C=C2\\C(=O)Nc3ccc(-c4cnn(-c5ccccc5)c4)cc32)c(C)c1C(=O)NCC1(N)CCCC1"
assayed_target = "Serine/threonine-protein kinase RIO2 (Homo sapiens)"
measurement_kind = "inhibition"
observed_value = 7


a. CCN(CC)CCNC(=O)c1c(C)[nH]c(/C=C2\C(=O)Nc3ccc(-c4ccnn4-c4ccc(OC)cc4)cc32)c1C
b. Cc1[nH]c(/C=C2\C(=O)Nc3ccc(-c4cnn(-c5ccccc5)c4)cc32)c(C)c1C(=O)NC1(CN2CCCCC2)CC1
c. CCN(CC)CCNC(=O)c1c(C)[nH]c(/C=C2\C(=O)Nc3ccc(-c4cnn(-c5ccccc5)c4C)cc32)c1C
d. CCN(CC)CCNC(=O)c1c(C)[nH]c(/C=C2\C(=O)Nc3ccc(-c4ccnn4-c4ccccn4)cc32)c1C
Hey, quick one: sort these by inhibition, low to high? Form entry: ranked labels (order as requested). b, d, a, c
(b: 6%, d: 14%, a: 34%, c: 55%)

---

Tested on: A549
ASSAY EXPLANATION: Cytotoxic activity against human A549 bulk cells incubated for 72 hrs by Cell-titer-Glo luminescence assay
Assay type: functional, cell-based
ASSAY SETUP: A549, 72 h
Reported pIC50 values for a set of compounds
// pIC50: -log10(molar conc.)

[[record]]
item_smiles = "CCN(CC)CCNC(=O)c1c(C)[nH]c(/C=C2\\C(=O)Nc3cc(-c4ccc(C(=O)c5ccccc5)cc4)ccc32)c1C"
observed_value = 5.44

[[record]]
item_smiles = "Cc1cc(C)c(/C=C2\\C(=O)Nc3c2cccc3-c2cncnc2)[nH]1"
observed_value = 4.60

[[record]]
item_smiles = "CCN(CC)CCNC(=O)c1c(C)[nH]c(/C=C2\\C(=O)Nc3ccc(-c4ccnn4-c4ccccc4)cc32)c1C"
observed_value = 5.53


Item: Cc1[nH]c(/C=C2\C(=O)Nc3ccc(-c4ccc(-c5ccccc5)s4)cc32)c(C)c1C(=O)N1CCOCC1 | System: A549 | pIC50: 4.99

Item: CCN(CC)CCNC(=O)c1c(C)[nH]c(/C=C2\C(=O)Nc3ccc(-c4ccccn4)cc32)c1C | System: A549 | pIC50: 5.14

Item: Cc1cc(C)c(/C=C2\C(=O)Nc3ccc(-c4csc(-n5ccnc5)n4)cc32)[nH]1 | System: A549 | pIC50: 5.03

Item: Cc1cc(C)c(/C=C2\C(=O)Nc3ccc(-c4cccc5ncccc45)cc32)[nH]1 | System: A549 | pIC50: 4.96

Item: Cc1cc(C)c(/C=C2\C(=O)Nc3ccc(-c4cnc5ccccn45)cc32)[nH]1 | System: A549 | pIC50: 4.78

Item: CCN(CC)CCNC(=O)c1c(C)[nH]c(/C=C2\C(=O)Nc3ccc(-c4cn(-c5ccccc5)nn4)cc32)c1C | System: A549 | pIC50: 5.31

Item: COC(=O)c1c(C)[nH]c(/C=C2\C(=O)Nc3ccc(-c4csc(-c5ccncc5)n4)cc32)c1C | System: A549 | pIC50: 5.02

Item: CCN(CC)CCN1CCCc2[nH]c(/C=C3\C(=O)Nc4ccc(-c5csc(C6CCNCC6)n5)cc43)c(C)c2C1=O | System: A549 | pIC50: 5.15

Item: Cc1cc(C)c(/C=C2\C(=O)Nc3ccc(-c4nccc5ccccc45)cc32)[nH]1 | System: A549 | pIC50: 4.74

Item: CCN(CC)CCNC(=O)c1c(C)[nH]c(/C=C2\C(=O)Nc3ccc(-c4cnn(-c5ccccc5)c4)cc32)c1C | System: A549 | pIC50: 5.27
